- experiment description: Squirrel monkey plasma levels
- Assay type: in vivo
- measurement conditions: 30 minutes, read-out: Plasma Levels, Time in Minutes 30
concentration at 0.5 h by entry:
Express the result in µg/mL but write the number alone.

**Query** Supply recorded concentration at 0.5 h for CC1(C)S[C@@H]2[C@H](NC(=O)[C@H](N)c3ccc(O)cc3)C(=O)N2[C@H]1C(=O)O [Amoxycillin, reference compound] here.
**Result** 9.7

**Query** Supply recorded concentration at 0.5 h for `C=C(C)[C@@H](N)C(=O)N[C@@H]1C(=O)N2[C@@H]1SC(C)(C)[C@@H]2C(=O)O` here.
**Result** 16.4

**Query** Supply recorded concentration at 0.5 h for `C=C[C@@H](N)C(=O)N[C@@H]1C(=O)N2[C@@H]1SC(C)(C)[C@@H]2C(=O)O` here.
**Result** 14.7

Others:
**Query** Supply recorded concentration at 0.5 h for CC1(C)S[C@@H]2[C@H](NC(=O)[C@H](N)C=C(Cl)Cl)C(=O)N2[C@H]1C(=O)O [Example 5 (D-stereoisomer)] here.
**Result** 28.8

Ref: patent EP0209237A2
